Values compiled from patent US20240262842A1.

tested on: MIA PaCa-2 cells; test: Growth inhibition activity on KRAS-G12C mutant cell line (CellTiter-Glo 3D); assay type: cell-based, human; details: Homo sapiens, MIA PaCa-2, 72 h, MIA PaCa-2, 3-day culture with compound; Table 3-1
# reported pIC50; entries follow
Hey, just a heads up that pIC50 is the negative log base 10 of the concentration in molar.

Some compounds with recorded pIC50:
Cc1cc2c(nc(C)n2C)c2c1-c1cccc3c(C(=O)c4cc(F)c(NC(=O)/C=C/CN[C@H]5[C@@H]6COC[C@@H]65)c(F)c4)cn(c13)CCN2C [Example 143]: 7.32
Cc1nnc2c3c(c(C(F)(F)F)cn12)-c1cccn2c(C(=O)c4cc(F)c(NC(=O)/C=C/CNC5(C)CC5)c(F)c4)cc(c12)CCN3C (single isomer, unassigned) [Example 223]: 7.63
Cn1cnc2c3c(c(C(F)(F)F)cc21)-c1cccn2c(C(=O)c4cc(F)c(NC(=O)/C=C/CN5CC[C@H](O)C5)c(F)c4)cc(c12)CCO3 [Example 150]: 7.51
Cn1cnc2c3c(c(C(F)(F)F)cc21)-c1cccn2c(C(=O)c4cc(F)c(NC(=O)C=CCNC5CCOC5)c(F)c4)cc(c12)CCO3 (stereo not drawn) [Example 120]: 8.19
Cc1cc2c(ncn2C)c2c1-c1cccn3c(C(=O)c4cc(F)c(NC(=O)/C=C/CNC5(C)CCOCC5)c(F)c4)cc(c13)CCN2C [Example 116]: 7.52

Query compound follows.
I'd like to know its pIC50. The compound in question is Cn1cnc2c3c(c(C(F)(F)F)cc21)-c1cccn2c(C(=O)c4cc(F)c(NC(=O)/C=C/CN5CC6CCC5CO6)c(F)c4)cc(c12)CCO3 (stereo not drawn) [Example 220]
8.19
